Assay: MMV: MTT Cytotoxicity Assay Day 7 pi of Assay #10 (NO washout), U87-CD4-CCR5 cells, % cell death @ 5mM compound
Assay type: toxicity, cell-based
Settings: human, u87-cd4-ccr5, 5000 µM
Rule: True for % Cell Death not less than 40, False for anything less.

Completed entries (count: 5):
compound: O=C1c2ccccc2-c2nnc(-c3ccc(Br)cc3)cc21
label-class: False

compound: CC(C)(C)c1ccc2c(c1)CN(Cc1ccc(Cl)cc1)CO2
label-class: False

compound: CCC(O)c1ccc(Br)cc1NC(=O)c1cccc(Cl)c1 (stereo not given)
label-class: False

compound: Cc1cc(N(C)C)nc(Nc2ccc(NC(=O)Nc3ccccc3)cc2)n1
label-class: False

compound: O=C(Nc1ccc(C23CC4CC(CC(c5ccccc5)(C4)C2)C3)cc1)c1cccs1
label-class: True

Is reported % Cell Death greater than or equal to 40 here: "COc1cc2cc(C(=O)Nc3ccccc3)c(N)nc2cc1OC"
True

Is reported % Cell Death greater than or equal to 40 here: "O=c1cc(NC2CCN(CCCc3ccccc3)CC2)c2cc(Cl)ccc2o1"
False

Is reported % Cell Death greater than or equal to 40 here: "CCOc1ccc(Nc2c3ccccc3nc3ccccc23)cc1.Cl"
True

Is reported % Cell Death greater than or equal to 40 here: "CCOC(=O)c1cnc2c(C)cccc2c1Nc1ccc(C(C)=O)cc1"
True

====

Experiment: MMV: MTT Cytotoxicity Assay Day 3 pi, U87-CD4-CCR5 cells, % cell death @ 5mM compound
Assay type: toxicity, cell-based
Details: human, u87-cd4-ccr5, 5000 µM
reported-endpoint: % Cell Death

molecule: COc1ccc(Nc2nc(NCc3ccccc3)c3ccccc3n2)cc1
% Cell Death: 18

The measured % Cell Death associated with "Cc1ccc(Nc2nc(NCCO)c3ccccc3n2)cc1C" reads -23

The measured % Cell Death associated with "COc1ccc2c(=O)cc(C(Cl)(Cl)Cl)oc2c1" reads 90

The measured % Cell Death associated with "Cc1ccc(C(=O)c2oc3ccc4c(C)cc(=O)oc4c3c2C)cc1" reads 59

The measured % Cell Death associated with "CCOC(=O)c1cnc2c(C)cccc2c1Nc1ccc(C(C)=O)cc1" reads 70

The measured % Cell Death associated with CCN1CCCC1CNc1[nH]cnc2c3cc(Cl)ccc3nc1-2 (stereo not given) reads 45

The measured % Cell Death associated with O=C(CCc1ccccc1)c1ccccc1OCC(O)CN1CCCCC1 (stereo not given) reads 53

The measured % Cell Death associated with "c1ccc(/C2=N/c3ccccc3/N=C(/c3ccccc3)c3ccccc32)cc1" reads -3

The measured % Cell Death associated with "COc1cccc(NC(=O)Cn2c(C)c(C#N)c3ccccc32)c1" reads 23

The measured % Cell Death associated with "COc1ccccc1N1C(=N)SC(=Cc2ccc(OCc3ccccc3F)cc2)C1=O" reads 17

The measured % Cell Death associated with "Cc1cc(Nc2ccc(OCc3ccccc3)cc2)nc2cc(O)ccc12" reads 23

====

Experiment: MMV: MTT Cytotoxicity Assay Day 3 pi, U87-CD4-CCR5 cells, % cell death @ 5mM compound
Format: toxicity, cell-based
Conditions: human, u87-cd4-ccr5, 5000 µM
Rule: 1 (yes) for % Cell Death not less than 30, 0 (no) for anything less.

Completed entries (count: 5):
compound: COc1ccccc1N1CCN(C(CNS(=O)(=O)c2ccc(Cl)cc2)c2cccnc2)CC1 (configuration not stated)
label-class: 1 (yes)

compound: N=c1c2ccccc2nnn1-c1cccc(C(F)(F)F)c1
label-class: 1 (yes)

compound: CCOC(=O)C1=CN(C)C=C(C(=O)OCC)C1c1cc(Br)c(OCC)c(OC)c1
label-class: 1 (yes)

compound: COc1cc2cc(C(=O)Nc3ccccc3)c(N)nc2cc1OC
label-class: 1 (yes)

compound: COc1ccc(Br)cc1C1Nc2ccc3ccccc3c2C2=C1C(=O)CC(c1ccccc1)C2 (configuration not stated)
label-class: 0 (no)

Here's the next entry for you.
Is reported % Cell Death greater than or equal to 30 here: "Oc1ccc(C(=C(Cl)Cl)c2ccc(O)cc2)cc1"
1 (yes)
